Assignment: determine reported IC50 for the given molecules.
Target: Tyrosine-protein kinase Lck (Homo sapiens, UniProt P06239)
Sequence (P06239 whole entry): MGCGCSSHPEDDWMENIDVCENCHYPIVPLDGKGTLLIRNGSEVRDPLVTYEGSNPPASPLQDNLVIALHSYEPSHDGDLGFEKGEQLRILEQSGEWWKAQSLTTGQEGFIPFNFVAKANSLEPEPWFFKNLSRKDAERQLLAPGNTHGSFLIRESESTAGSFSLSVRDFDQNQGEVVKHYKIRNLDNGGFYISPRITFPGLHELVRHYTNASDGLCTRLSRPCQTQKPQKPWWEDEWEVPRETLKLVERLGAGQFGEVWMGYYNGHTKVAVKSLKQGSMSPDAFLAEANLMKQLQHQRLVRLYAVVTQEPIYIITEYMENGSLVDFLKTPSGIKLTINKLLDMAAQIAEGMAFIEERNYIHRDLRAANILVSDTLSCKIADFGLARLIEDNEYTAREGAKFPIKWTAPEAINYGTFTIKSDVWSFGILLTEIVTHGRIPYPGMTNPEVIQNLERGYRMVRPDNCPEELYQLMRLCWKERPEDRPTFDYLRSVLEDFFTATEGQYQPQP

COc1ccc2cc(C(=O)Nc3ccc(O)cc3)c(=N)oc2c1: > 32.2 µM

Let's switch to this molecule now.
The observed IC50 for N=c1oc2cc(O)ccc2cc1C(=O)Nc1cccc(O)c1 when tested with Tyrosine-protein kinase Lck (Homo sapiens, UniProt P06239) stands at > 33.8 µM

----------
Lab note: pIC50 readings collected with Tyrosine-protein kinase Fyn (Homo sapiens, UniProt P06241) for the following compounds.
Sequence (P06241 whole entry): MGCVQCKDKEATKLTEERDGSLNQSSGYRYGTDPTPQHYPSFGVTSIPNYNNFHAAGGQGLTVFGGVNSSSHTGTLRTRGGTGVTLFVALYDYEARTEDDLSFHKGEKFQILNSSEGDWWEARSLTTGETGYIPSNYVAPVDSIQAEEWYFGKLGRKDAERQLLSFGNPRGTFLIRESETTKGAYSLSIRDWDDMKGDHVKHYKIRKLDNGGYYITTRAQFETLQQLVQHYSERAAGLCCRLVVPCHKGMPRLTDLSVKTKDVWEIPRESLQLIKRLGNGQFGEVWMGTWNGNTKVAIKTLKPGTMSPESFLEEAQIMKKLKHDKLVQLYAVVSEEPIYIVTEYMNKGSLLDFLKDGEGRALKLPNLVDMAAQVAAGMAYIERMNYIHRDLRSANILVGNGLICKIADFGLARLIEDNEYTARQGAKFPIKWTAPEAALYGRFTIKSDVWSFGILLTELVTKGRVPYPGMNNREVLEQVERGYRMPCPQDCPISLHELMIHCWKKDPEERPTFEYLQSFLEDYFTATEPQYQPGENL
pIC50: −log10 of the molar value.

Here is how some compounds turned out for pIC50.
N=c1oc2c(O)c(O)ccc2cc1C(=O)Nc1ccccc1: < 4.17
N=c1oc2c(O)c(O)ccc2cc1C(=O)Nc1cccc(CO)c1: < 4.21
N=c1oc2c(O)c(O)ccc2cc1C(=O)Nc1ccccc1CO: < 4.21

Let's switch to this compound now.
Item: N=c1oc2c(O)cccc2cc1C(=O)Nc1cccc(CO)c1 | pIC50: 5.01

Where do these numbers come from? They come from ChEMBL document CHEMBL1152042.
